# MEASURED_TARGET: δ-opioid receptor (DOR), Human-ORPD1 (human, UniProt P41143 1-372)
# Sequence (P41143 whole entry, stated change not applied): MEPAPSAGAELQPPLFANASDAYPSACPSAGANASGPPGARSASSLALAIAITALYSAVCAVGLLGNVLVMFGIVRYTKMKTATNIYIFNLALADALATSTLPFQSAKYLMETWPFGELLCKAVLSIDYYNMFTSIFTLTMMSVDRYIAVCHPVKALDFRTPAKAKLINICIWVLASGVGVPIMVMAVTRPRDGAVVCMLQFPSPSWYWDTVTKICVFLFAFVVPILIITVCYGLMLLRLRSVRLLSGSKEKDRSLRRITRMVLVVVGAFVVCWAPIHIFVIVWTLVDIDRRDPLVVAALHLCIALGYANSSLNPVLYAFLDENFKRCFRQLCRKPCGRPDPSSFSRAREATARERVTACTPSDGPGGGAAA
# EXPERIMENTAL_PROTOCOL: cell-based or functional assay
Square brackets hold non-standard residues; d marks the D form. Phe(2,6-Me2,4-CONH2) = Cc1cc(C(N)=O)cc(C)c1C[C@H](N)C(=O)O; Phe(3,4-(OMe)2) = COc1ccc(C[C@H](N)C(=O)O)cc1OC; Trp(5-OH) = N[C@@H](Cc1c[nH]c2ccc(O)cc12)C(=O)O; Phe(4-COOH) = N[C@@H](Cc1ccc(C(=O)O)cc1)C(=O)O; Phe(4-tBu) = CC(C)(C)c1ccc(C[C@H](N)C(=O)O)cc1; Dmt = Cc1cc(O)cc(C)c1C[C@H](N)C(=O)O; NMeR = CN[C@@H](CCCNC(=N)N)C(=O)O; hPhe = N[C@@H](CCc1ccccc1)C(=O)O; αMeF = C[C@](N)(Cc1ccccc1)C(=O)O; Tic = O=C(O)[C@@H]1Cc2ccccc2CN1; β3hF = N[C@H](CC(=O)O)Cc1ccccc1; Nle = CCCC[C@H](N)C(=O)O; dNMeA = CN[C@H](C)C(=O)O; Sar = CNCC(=O)O
In this section we review reported DOR EC50 values for a set of binders.
OBSERVATION_TYPE: DOR EC50

# BINDER, ASSAY_RESULT
rows = [
    ("H-[Phe(2,6-Me2,4-CONH2)][dA]G[Tic][Sar]-NH2 [H-Phe(DMC)-a-G-Tic-Sar-NH2]", "≤ 50 nM"),
    ("H-[Phe(2,6-Me2,4-CONH2)][dD]G[β3hF][Sar]-NH2 (SMILES Cc1cc(C(N)=O)cc(C)c1C[C@H](N)C(=O)N[C@H](CC(=O)O)C(=O)NCC(=O)N[C@H](CC(=O)N(C)CC(N)=O)Cc1ccccc1) [H-Phe(DMC)-(D)Asp-G-bhF-Sar-NH2]", "≤ 1 nM"),
    ("H-[Dmt]GG[β3hF][Sar]-NH2 (SMILES Cc1cc(O)cc(C)c1C[C@H](N)C(=O)NCC(=O)NCC(=O)N[C@H](CC(=O)N(C)CC(N)=O)Cc1ccccc1) [H-DMT-G-G-bhF-Sar-NH2]", "≤ 1 nM"),
    ("H-[Dmt][dR]F[αMeF]-NH2 (SMILES Cc1cc(O)cc(C)c1C[C@H](N)C(=O)N[C@H](CCCNC(=N)N)C(=O)N[C@@H](Cc1ccccc1)C(=O)N[C@@](C)(Cc1ccccc1)C(N)=O) [H-DMT-r-F-alpha-MePhe-NH2]", "≤ 10 nM"),
    ("H-[Trp(5-OH)][dA]G[β3hF][Sar]-NH2 [H-Trp(5-OH)-a-G-bhF-Sar-NH2]", "≤ 200 nM"),
    ("H-[Dmt][dR][Phe(4-tBu)][Sar]-NH2 (SMILES Cc1cc(O)cc(C)c1C[C@H](N)C(=O)N[C@H](CCCNC(=N)N)C(=O)N[C@@H](Cc1ccc(C(C)(C)C)cc1)C(=O)N(C)CC(N)=O) [H-DMT-r-4-tBu-Phe-Sar-NH2]", "> 200 nM"),
    ("H-[Phe(3-OH)][dA]G[β3hF][Sar]-NH2 [H-meta-Tyr-a-G-bhF-Sar-NH2]", "> 200 nM"),
    ("H-[Dmt][dA]I[β3hF][Sar]-NH2 (SMILES CC[C@H](C)[C@H](NC(=O)[C@@H](C)NC(=O)[C@@H](N)Cc1c(C)cc(O)cc1C)C(=O)N[C@H](CC(=O)N(C)CC(N)=O)Cc1ccccc1) [H-DMT-a-ILeu-bhF-Sar-NH2]", "≤ 50 nM"),
    ("H-[Dmt][dA][hPhe][Sar]-NH2 (SMILES Cc1cc(O)cc(C)c1C[C@H](N)C(=O)N[C@H](C)C(=O)N[C@@H](CCc1ccccc1)C(=O)N(C)CC(N)=O) [H-DMT-a-hF-Sar-NH2]", "≤ 1 nM"),
    ("H-[Phe(2,6-Me2,4-CONH2)][NMeR]G[β3hF][Sar]-NH2 (SMILES Cc1cc(C(N)=O)cc(C)c1C[C@H](N)C(=O)N(C)[C@@H](CCCNC(=N)N)C(=O)NCC(=O)N[C@H](CC(=O)N(C)CC(N)=O)Cc1ccccc1) [H-Phe(DMC)-N(Me)Arg-G-bhF-Sar-NH2]", "≤ 200 nM"),
    ("H-[Dmt][dR]F[Phe(3,4-(OMe)2)]-NH2 (SMILES COc1ccc(C[C@H](NC(=O)[C@H](Cc2ccccc2)NC(=O)[C@@H](CCCNC(=N)N)NC(=O)[C@@H](N)Cc2c(C)cc(O)cc2C)C(N)=O)cc1OC) [H-DMT-r-F-Phe(3,4-diOMe)-NH2]", "≤ 10 nM"),
    ("H-[Dmt][dR]FL-NH2 (SMILES Cc1cc(O)cc(C)c1C[C@H](N)C(=O)N[C@H](CCCNC(=N)N)C(=O)N[C@@H](Cc1ccccc1)C(=O)N[C@@H](CC(C)C)C(N)=O) [H-DMT-r-F-L-NH2]", "≤ 50 nM"),
    ("H-[Phe(4-COOH)][dA]G[β3hF][Sar]-NH2 [H-Phe(4-COOH)-a-G-bhF-Sar-NH2]", "≤ 200 nM"),
    ("H-[Dmt][dNMeA]XG-NH2 (not fully specified (residue 3); printed as DMT-N(Me)a-Aba-G) [H-DMT-N(Me)-a-Aba-G-NH2]", "≤ 1 nM"),
    ("H-[Dmt][dR]F[Nle]-NH2 (SMILES CCCC[C@H](NC(=O)[C@H](Cc1ccccc1)NC(=O)[C@@H](CCCNC(=N)N)NC(=O)[C@@H](N)Cc1c(C)cc(O)cc1C)C(N)=O) [H-DMT-r-F-Nle-NH2]", "≤ 50 nM"),
    ("H-[Dmt][dA][hPhe][Nle]-NH2 (SMILES CCCC[C@H](NC(=O)[C@H](CCc1ccccc1)NC(=O)[C@@H](C)NC(=O)[C@@H](N)Cc1c(C)cc(O)cc1C)C(N)=O) [H-DMT-a-hF-Nle-NH2]", "≤ 1 nM"),
]
